# EXPERIMENTAL TARGET: TbTRF-lMyb280-382 R298E R298E (Trypanosoma brucei) (UniProt Q4VHG6)
# Sequence: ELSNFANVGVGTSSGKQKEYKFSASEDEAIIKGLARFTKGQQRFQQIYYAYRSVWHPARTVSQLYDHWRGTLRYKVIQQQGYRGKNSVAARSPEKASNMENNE
# ASSAY COMMENT: EMSA
EXPERIMENTAL READOUT: Kd

INPUT SEQUENCE | MEASUREMENT
CCCUAACCCUAACCCUAACCCUAACCCUAACCCUAACCCUAACCCUAACCCUAACCCUAACCCUAACCCUAA [ss(CCCUAA)12] | 36 nM
UUAGGGUUAGGGUUAGGGUUAGGGUUAGGGUUAGGGUUAGGGUUAGGGUUAGGGUUAGGGUUAGGGUUAGGG [ss(UUAGGG)12] | 5 nM

Where do these numbers come from? They come from paper PMC8191777.
